assayed_system: T1, HUWE1 (3951–4374), untagged (human, UniProt Q7Z6Z7 3951-4374)
T1 construct: Monomer MW 49.752 kDa (AUC methods); source: LOBSTR RIL cells, purified (IMAC, TEV protease cleavage, second IMAC, gel filtration); not shown: His6, N-terminal, cleaved
T1 sequence (looked up): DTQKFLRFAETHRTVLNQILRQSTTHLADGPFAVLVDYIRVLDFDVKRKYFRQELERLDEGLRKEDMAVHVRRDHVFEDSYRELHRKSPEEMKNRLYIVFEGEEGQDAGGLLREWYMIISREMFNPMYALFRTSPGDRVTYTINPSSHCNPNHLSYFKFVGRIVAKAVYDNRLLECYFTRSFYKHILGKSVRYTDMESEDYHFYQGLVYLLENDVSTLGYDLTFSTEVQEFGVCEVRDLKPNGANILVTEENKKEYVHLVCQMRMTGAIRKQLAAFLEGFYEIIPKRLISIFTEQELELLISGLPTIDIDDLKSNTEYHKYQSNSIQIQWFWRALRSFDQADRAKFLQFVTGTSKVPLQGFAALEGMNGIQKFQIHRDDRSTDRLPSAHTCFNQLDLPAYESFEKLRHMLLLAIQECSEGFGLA
procedure_text: fluorescence polarisation; apparent KD; constant 1 μM TAMRA-labelled p14ARF (45–64) peptide titrated with HUWE1 protein; 25°C, 20 mM HEPES pH 8.0, 150 mM NaCl, 10% glycerol, 1 mM EDTA, 5 mM DTT; three independent experiments
run_conditions: both partners purified
Ends that are not written are not given here.
reported_endpoint: Kd
Answer with the value and then the unit.

(Q) Complete the entry with Kd for LVLMLLRSQRLGQQPLPRRPK(TAMRA) (p14ARF (alternative reading frame product of CDKN2A), human, residues 45–64; additional lysine residue at the C-terminus that carries the TAMRA label (told in words); also called p14ARF-peptide; p14ARF (45-64); source: synthetic peptide, bought: Elim Biopharm) [fluorophor-labeled p14ARF-derived peptide (residues 45–64), TAMRA-labelled]
(A) 280 µM
